EXPERIMENTAL_READOUT: melting point

{"columns": ["COMPOUND", "melting point"],
 "data": [
  ["O=C(OCCOCCO)c1ccc2[nH]c(=O)[nH]c2c1", "227 to 228 °C"],
  ["Cc1ccc2[nH]c(=O)[nH]c2c1", "300 to 302 °C"],
  ["CCCCCCC(=O)c1ccc2c(c1)CC(=O)O2", "64 to 67 °C"]
]}

Name the reported melting point value associated with the compound CCCCCNS(=O)(=O)c1ccc2[nH]c(=O)[nH]c2c1
316 to 318 °C

Name the reported melting point value associated with the compound CCCCNC(=N)c1ccc2[nH]c(=O)[nH]c2c1
168 °C

====

Test system: murine peritoneal macrophage cytokine production
PROTOCOL_DESCRIPTION: inhibition of peritoneal macrophage cytokine production (ELISA)
Assay type: cell-based, mice
CONDITION_INFO: Mus musculus, [LPS] 100 ng/mL, read-out: EC50, IL-1 release
EXPERIMENTAL_READOUT: pEC50
Just so you know, pEC50 here is -log10 of the concentration in molar units; reply with that number alone.

Name the reported pEC50 value associated with the compound O=C(NCCc1ccc(O)c(O)c1)c1ccc2[nH]c(=O)[nH]c2c1
4.78

====

Test system: antigen-specific T cell activation
PROTOCOL_DESCRIPTION: antigen-specific (mBSA) activation of splenic T lymphocytes, 3H-thymidine incorporation
Assay type: cell-based, mice
CONDITION_INFO: Mus musculus, T-cell, read-out: EC50, inhibition of T cell activation
EXPERIMENTAL_READOUT: EC50 (µM)
Please give a number only; it is taken to be in µM.

Name the reported EC50 value associated with the compound Cc1ccc2[nH]c(=O)[nH]c2c1
7.29

====

System: antigen-specific T cell activation
PROTOCOL_DESCRIPTION: antigen-specific (mBSA) activation of splenic T lymphocytes, 3H-thymidine incorporation
Type: cell-based, mice
CONDITION_INFO: Mus musculus, T-cell, mBSA 50 μg/ml; read-out: EC50, inhibition of T cell activation
EXPERIMENTAL_READOUT: EC50 (µM)

Some solved entries appear below for comparison.
{"columns": ["COMPOUND", "EXPERIMENTAL_READOUT", "RESULT"],
 "data": [
  ["Cc1cc2[nH]c(=O)[nH]c2cc1Br", "EC50", 10.7],
  ["CCCCCNS(=O)(=O)c1ccc2[nH]c(=O)[nH]c2c1", "EC50", 1.29],
  ["O=C(NCCc1ccc(O)c(O)c1)c1ccc2[nH]c(=O)[nH]c2c1", "EC50", 71.7]
]}

a: COC(=O)c1ccc2[nH]c(=O)[nH]c2c1 [Compound 7, benzimidazol-2-one-5-methanoate]
b: O=C(NC(Cc1ccccc1)C(=O)O)c1ccc2[nH]c(=O)[nH]c2c1 (centres unmarked)
c: CCCCCCC(=O)c1ccc2c(c1)CC(=O)O2
d: CC(=O)OCC1OC(OC(=O)c2ccc3[nH]c(=O)[nH]c3c2)C(OC(C)=O)C(OC(C)=O)C1OC(C)=O (centres unmarked)
e: CCCCCOS(=O)(=O)c1ccc2[nH]c(=O)[nH]c2c1
Write the entries in order, lowest recorded EC50 first. Reply: labels, ordered per the request.
e, c, d, a, b

a: COC(=O)C(Cc1ccccc1)NC(=O)c1ccc2[nH]c(=O)[nH]c2c1 (centres unmarked)
b: O=C(O)CCCC(=O)c1ccc2[nH]c(=O)[nH]c2c1
I'd appreciate it if you could identify which of a and b has the greater EC50. Write down the label of the entry you select.
a
(a: 50.7 µM, b: 2.31 µM)
